Each entry below carries its reported melting point.
Number only, in °C; omit the unit.

NC(=O)N1CCc2sc(-c3ccc(O[C@H]4C[C@H](N5CCCCC5)C4)cc3)nc2C1 [Compound 64]	214.3
CC(C)(C)OC(=O)N1CCc2nc(-c3ccc(O[C@H]4C[C@H](N5CCCCC5)C4)cc3)sc2C1 [Compound 3]	162.3
OC[C@H](O)CN1CCc2nc(-c3ccc(O[C@H]4C[C@H](N5CCCCC5)C4)cc3)sc2C1 [Compound 17]	172

Inquiry: Which melting point is listed for COC(=O)CN1CCc2nc(-c3ccc(O[C@H]4C[C@H](N5CCCCC5)C4)cc3)sc2C1 [Compound 26] ?
Reply text: 221

Taken from patent US20100292188A1.
